# test: self-splicing fitness, log relative to wild type (ln ratio); higher = more splicing; Tetrahymena group I intron in knt gene, E. coli kanamycin selection, DiMSum; sequences stand for … in CUCUCU…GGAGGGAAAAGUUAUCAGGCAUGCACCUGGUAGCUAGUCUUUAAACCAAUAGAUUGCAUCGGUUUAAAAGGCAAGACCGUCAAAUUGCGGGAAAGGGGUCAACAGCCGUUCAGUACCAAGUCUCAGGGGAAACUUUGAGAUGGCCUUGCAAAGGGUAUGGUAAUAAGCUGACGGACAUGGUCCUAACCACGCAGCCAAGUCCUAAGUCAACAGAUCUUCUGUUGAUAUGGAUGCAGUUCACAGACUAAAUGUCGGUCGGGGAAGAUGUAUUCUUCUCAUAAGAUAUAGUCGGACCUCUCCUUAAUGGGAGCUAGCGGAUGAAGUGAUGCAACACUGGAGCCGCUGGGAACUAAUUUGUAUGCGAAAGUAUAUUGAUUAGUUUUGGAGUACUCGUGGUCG;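 further: selection with 25 µg/mL kanamycin versus none on LB agar overnight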
# assay_context: 30 °C
Decide by self-splicing fitness (ln): equal to or exceeding -2 means Criterion met, less means Criterion not met.

## Input Threshold query (self-splicing fitness (ln) >= -2) on AGCCAGCAAUAUUACGUACU
## Output Criterion met

## Input Threshold query (self-splicing fitness (ln) >= -2) on GUGCAGCAAUAUUACGUGAG
## Output Criterion met

## Input Threshold query (self-splicing fitness (ln) >= -2) on CAGUAGCAAUAUUACGCGUA
## Output Criterion not met

## Input Threshold query (self-splicing fitness (ln) >= -2) on UACGAGCAAUAUUACGCUAA
## Output Criterion not met

## Input Threshold query (self-splicing fitness (ln) >= -2) on UCACAGCAAUAUUACGUCAC
## Output Criterion not met

## Input Threshold query (self-splicing fitness (ln) >= -2) on UGUUAGCAAUAUUACGCCAG
## Output Criterion met

## Input Threshold query (self-splicing fitness (ln) >= -2) on AAAGAGCAAUAUUACGAUAA
## Output Criterion not met

## Input Threshold query (self-splicing fitness (ln) >= -2) on CCUUAGCAAUAUUACGUGCA
## Output Criterion not met

## Input Threshold query (self-splicing fitness (ln) >= -2) on CAUCAGCAAUAUUACGGGGG
## Output Criterion met

## Input Threshold query (self-splicing fitness (ln) >= -2) on UUAUAGCAAUAUUACGUUAC
## Output Criterion not met

## Input Threshold query (self-splicing fitness (ln) >= -2) on AGGCAGCAAUAUUACGGGAA
## Output Criterion not met

## Input Threshold query (self-splicing fitness (ln) >= -2) on GUACAGCAAUAUUACGGCUC
## Output Criterion met

## Input Threshold query (self-splicing fitness (ln) >= -2) on UAGCAGCAAUAUUACGCCGA
## Output Criterion met

## Input Threshold query (self-splicing fitness (ln) >= -2) on CUGCAGCAAUAUUACGGAAG
## Output Criterion met

## Input Threshold query (self-splicing fitness (ln) >= -2) on CAAAAGCAAUAUUACGAAAC
## Output Criterion not met

## Input Threshold query (self-splicing fitness (ln) >= -2) on CGAUAGCAAUAUUACGCGCU
## Output Criterion met

## Input Threshold query (self-splicing fitness (ln) >= -2) on CUAAAGCAAUAUUACGAAAG
## Output Criterion met

## Input Threshold query (self-splicing fitness (ln) >= -2) on GUGCAGCAAUAUUACGCUUU
## Output Criterion met

## Input Threshold query (self-splicing fitness (ln) >= -2) on AUGUAGCAAUAUUACGCGGG
## Output Criterion not met

## Input Threshold query (self-splicing fitness (ln) >= -2) on UUCCAGCAAUAUUACGGAGU
## Output Criterion not met

## Input Threshold query (self-splicing fitness (ln) >= -2) on UCUCAGCAAUAUUACGCUGA
## Output Criterion not met

## Input Threshold query (self-splicing fitness (ln) >= -2) on UCAUAGCAAUAUUACGGUCU
## Output Criterion not met

## Input Threshold query (self-splicing fitness (ln) >= -2) on CUAAAGCAAUAUUACGGGUC
## Output Criterion not met

## Input Threshold query (self-splicing fitness (ln) >= -2) on GCGAAGCAAUAUUACGCUUG
## Output Criterion met

## Input Threshold query (self-splicing fitness (ln) >= -2) on CACCAGCAAUAUUACGACGA
## Output Criterion not met

## Input Threshold query (self-splicing fitness (ln) >= -2) on GGGUAGCAAUAUUACGAUCA
## Output Criterion met

## Input Threshold query (self-splicing fitness (ln) >= -2) on AUACAGCAAUAUUACGUGCU
## Output Criterion not met

## Input Threshold query (self-splicing fitness (ln) >= -2) on CGCGAGCAAUAUUACGGAUC
## Output Criterion not met

## Input Threshold query (self-splicing fitness (ln) >= -2) on UCCAAGCAAUAUUACGUAUA
## Output Criterion not met

## Input Threshold query (self-splicing fitness (ln) >= -2) on CGGCAGCAAUAUUACGCGAC
## Output Criterion not met

## Input Threshold query (self-splicing fitness (ln) >= -2) on UAAAAGCAAUAUUACGGGAA
## Output Criterion not met

## Input Threshold query (self-splicing fitness (ln) >= -2) on GUCCAGCAAUAUUACGUGUA
## Output Criterion met

## Input Threshold query (self-splicing fitness (ln) >= -2) on UACAAGCAAUAUUACGAGCA
## Output Criterion met

## Input Threshold query (self-splicing fitness (ln) >= -2) on AUGCAGCAAUAUUACGUUAA
## Output Criterion not met

## Input Threshold query (self-splicing fitness (ln) >= -2) on AGAGAGCAAUAUUACGCUGG
## Output Criterion not met

## Input Threshold query (self-splicing fitness (ln) >= -2) on UAAAAGCAAUAUUACGAGUG
## Output Criterion met

## Input Threshold query (self-splicing fitness (ln) >= -2) on CAGUAGCAAUAUUACGAAGG
## Output Criterion met

## Input Threshold query (self-splicing fitness (ln) >= -2) on UCCAAGCAAUAUUACGCAUU
## Output Criterion not met

## Input Threshold query (self-splicing fitness (ln) >= -2) on UCUCAGCAAUAUUACGCAAA
## Output Criterion not met

## Input Threshold query (self-splicing fitness (ln) >= -2) on CCCUAGCAAUAUUACGGGUA
## Output Criterion not met

## Input Threshold query (self-splicing fitness (ln) >= -2) on CUUCAGCAAUAUUACGAGAC
## Output Criterion not met

## Input Threshold query (self-splicing fitness (ln) >= -2) on CCAUAGCAAUAUUACGCAAC
## Output Criterion not met

## Input Threshold query (self-splicing fitness (ln) >= -2) on UCACAGCAAUAUUACGGGCG
## Output Criterion met

## Input Threshold query (self-splicing fitness (ln) >= -2) on CCGAAGCAAUAUUACGAUCA
## Output Criterion not met

## Input Threshold query (self-splicing fitness (ln) >= -2) on GGCUAGCAAUAUUACGUCUG
## Output Criterion not met

## Input Threshold query (self-splicing fitness (ln) >= -2) on AUGCAGCAAUAUUACGCGGA
## Output Criterion not met

## Input Threshold query (self-splicing fitness (ln) >= -2) on UGCGAGCAAUAUUACGGCGU
## Output Criterion not met

## Input Threshold query (self-splicing fitness (ln) >= -2) on GCCCAGCAAUAUUACGCGUA
## Output Criterion met

## Input Threshold query (self-splicing fitness (ln) >= -2) on CACUAGCAAUAUUACGUACC
## Output Criterion not met

## Input Threshold query (self-splicing fitness (ln) >= -2) on CCCCAGCAAUAUUACGAGAU
## Output Criterion not met

## Input Threshold query (self-splicing fitness (ln) >= -2) on UUCCAGCAAUAUUACGCUAA
## Output Criterion met

## Input Threshold query (self-splicing fitness (ln) >= -2) on CAUUAGCAAUAUUACGUAUC
## Output Criterion not met

## Input Threshold query (self-splicing fitness (ln) >= -2) on AAGUAGCAAUAUUACGUGUG
## Output Criterion not met

## Input Threshold query (self-splicing fitness (ln) >= -2) on UUCAAGCAAUAUUACGCGAA
## Output Criterion not met
